These entries and their values trace back to ChEMBL document CHEMBL6078719.

Test: Binding affinity to Mycobacterium tuberculosis Acetohydroxy acid synthase assessed as binding constant by isothermal titration calorimetry
measured_endpoint: Kd

CC1=C(O)C(=O)C=C2C1=CC=C1[C@@]2(C)CC[C@@]2(C)[C@@H]3C[C@](C)(C(=O)O)CC[C@]3(C)CC[C@]12C 1900 nM

###

Test: Cytotoxicity against human THP-1 cells incubated for 48 hrs by CCK8 assay
Format: toxicity, cell-based
measured_endpoint: IC50 at 48 h

compound	measured_result
CC1=C(O)C(=O)C=C2C1=CC=C1[C@@]2(C)CC[C@@]2(C)[C@@H]3C[C@](C)(C(=O)O)CC[C@]3(C)CC[C@]12C [CELASTROL]	12.5 µM

###

Assay: Inhibition of Mycobacterium tuberculosis Acetohydroxy acid synthase using pyruvate as substrate incubated for 10 mins followed by substrate addition by colorimetric assay
pIC50: −log10 of the molar value.
Each entry gets false if its pIC50 stays under 5, and true if its pIC50 is 5 or above.

compound	group
COC(=O)c1ccccc1S(=O)(=O)NC(=O)Nc1nc(C)cc(C)n1 [SULFOMETURON METHYL]	true
CC1=C(O)C(=O)C=C2C1=CC=C1[C@@]2(C)CC[C@@]2(C)[C@@H]3C[C@](C)(C(=O)O)CC[C@]3(C)CC[C@]12C [CELASTROL]	true
COc1ccc(-c2oc3c(CCC(C)(C)O)c(O)cc(O)c3c(=O)c2O)cc1	false
O=C(/C=C/c1ccc(O)c(O)c1/C=C/c1ccc(O)c(O)c1)O[C@H](Cc1ccc(O)c(O)c1)C(=O)O [SALVIANOLIC ACID A]	true
